test system: P. falciparum 3D7; test: Plasmodium lactate dehydrogenase; assay type: cell-based, Plasmodium falciparum; conditions: IC50 WRL-68 / EC50 Pf3D7
EXPERIMENTAL ENDPOINT: Selectivity index (SI) P. falciparum
Answer field: number only, no words.

These recorded examples may help you get a feel for the data.
>>> numeric_readout("CC1CCN(Cc2ccc(/C=C/C(=O)c3ccc(Cl)cc3)cc2O)CC1 [Compound 2g]")
0.54
>>> numeric_readout("CC1CCN(Cc2cc(/C=C/C(=O)c3ccc(Cl)cc3)ccc2O)CC1 [Compound 2f]")
4.73

q: Any idea what Selectivity index (SI) P. falciparum was measured for O=C(/C=C/c1cccc(O)c1)c1ccc(F)cc1 [Compound 1a] ?
a: 1.50
